tested_on: VAV1 (Homo sapiens, UniProt P15498+Q96SW2)
Construct: A heterozygous VAV1 C-terminal HiBiT knock-in pool was generated at Monte Rosa Therapeutics from a clonal Jurkat cell; endogenous in cells; host or cells: Jurkat clone stably expressing LgBiT, homozygous GSPT1-G575N; heterozygous VAV1-HiBiT knock-in pool
run_description: VAV1 degradation activity, VAV1-HiBiT knock-in Jurkat luminescence assay (Example A, Table 1)
Type: cell-based
condition_context: Jurkat, VAV1-HiBiT knock-in Jurkat cells, luminescence read at 6 and 24 hours; read-out: VAV1 Dmax %
value_kind: Dmax (%)

CN1CCCN(c2ccc(-c3cccc(C4CCC(=O)NC4=O)c3Cl)cc2F)C1=O (stereo not drawn) :: 96
O=C1CCC(c2cccc(-c3ccc(Cn4ccc(C(F)(F)F)cc4=O)cc3)c2Cl)C(=O)N1 (stereo not drawn) :: 94.9
O=C1CCC(c2cccc(-c3ccc(N4COCCC4=O)cc3)c2Cl)C(=O)N1 (stereo not drawn) :: 95
O=C1CCC(c2cccc(-c3ccc(Cc4nccc(C5COC5)n4)cc3)c2Cl)C(=O)N1 (stereo not drawn) :: 96.6
CN1CC(=O)N(c2ccc(-c3cccc(C4CCC(=O)NC4=O)c3Cl)cc2)CC1(C)C (stereo not drawn) :: 93.2
O=C1CCC(c2cccc(-c3ccc(CN4Cc5ccncc5C4=O)cc3)c2Cl)C(=O)N1 (stereo not drawn) :: 86.2
O=C1CCC(c2cccc(-c3ccc(C(=O)N4CCC(F)(F)C4)cc3)c2Cl)C(=O)N1 (stereo not drawn) :: 77.4
Cn1ccc(COc2ccc(-c3cccc(C4CCC(=O)NC4=O)c3Cl)cc2)n1 (stereo not drawn) :: 97
O=C1CCC(c2cccc(-c3ccc(OCC4CCCO4)cc3)c2Cl)C(=O)N1 (stereo not drawn) :: 87.1
